Sourced from ChEMBL document CHEMBL3632517

assay-notes: Ratio of IC50 for human PBMC to IC50 for African green monkey Vero cells
Assay type: cell-based
conditions-used: human PBMC versus Vero cells, read-out: Ratio IC50
measurement-type: selectivity ratio
Reply with the value as a number alone.

Record `COc1cc(/C=C/C(=O)/C=C/c2ccc(O)c(OC)c2)ccc1O` , field selectivity ratio: 8.2

====

target-under-test: DNA gyrase (Staphylococcus aureus, UniProt P0A0K8+P20831)
Sequence (P0A0K8 whole entry): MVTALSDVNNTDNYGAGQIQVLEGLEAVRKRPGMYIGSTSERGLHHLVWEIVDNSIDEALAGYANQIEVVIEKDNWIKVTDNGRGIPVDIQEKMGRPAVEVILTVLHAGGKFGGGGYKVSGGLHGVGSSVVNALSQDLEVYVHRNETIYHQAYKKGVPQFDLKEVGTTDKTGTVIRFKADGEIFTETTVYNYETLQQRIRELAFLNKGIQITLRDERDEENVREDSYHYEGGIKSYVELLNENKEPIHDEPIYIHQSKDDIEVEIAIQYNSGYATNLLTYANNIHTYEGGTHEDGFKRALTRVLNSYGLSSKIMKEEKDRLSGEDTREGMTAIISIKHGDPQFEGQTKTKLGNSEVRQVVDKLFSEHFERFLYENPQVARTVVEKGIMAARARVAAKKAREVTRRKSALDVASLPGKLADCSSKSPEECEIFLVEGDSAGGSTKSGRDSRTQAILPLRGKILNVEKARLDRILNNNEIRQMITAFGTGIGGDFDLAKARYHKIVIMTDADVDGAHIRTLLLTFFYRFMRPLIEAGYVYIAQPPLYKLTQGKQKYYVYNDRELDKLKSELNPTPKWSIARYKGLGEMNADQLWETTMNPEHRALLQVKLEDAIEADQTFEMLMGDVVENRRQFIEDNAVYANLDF
Sequence (P20831 whole entry): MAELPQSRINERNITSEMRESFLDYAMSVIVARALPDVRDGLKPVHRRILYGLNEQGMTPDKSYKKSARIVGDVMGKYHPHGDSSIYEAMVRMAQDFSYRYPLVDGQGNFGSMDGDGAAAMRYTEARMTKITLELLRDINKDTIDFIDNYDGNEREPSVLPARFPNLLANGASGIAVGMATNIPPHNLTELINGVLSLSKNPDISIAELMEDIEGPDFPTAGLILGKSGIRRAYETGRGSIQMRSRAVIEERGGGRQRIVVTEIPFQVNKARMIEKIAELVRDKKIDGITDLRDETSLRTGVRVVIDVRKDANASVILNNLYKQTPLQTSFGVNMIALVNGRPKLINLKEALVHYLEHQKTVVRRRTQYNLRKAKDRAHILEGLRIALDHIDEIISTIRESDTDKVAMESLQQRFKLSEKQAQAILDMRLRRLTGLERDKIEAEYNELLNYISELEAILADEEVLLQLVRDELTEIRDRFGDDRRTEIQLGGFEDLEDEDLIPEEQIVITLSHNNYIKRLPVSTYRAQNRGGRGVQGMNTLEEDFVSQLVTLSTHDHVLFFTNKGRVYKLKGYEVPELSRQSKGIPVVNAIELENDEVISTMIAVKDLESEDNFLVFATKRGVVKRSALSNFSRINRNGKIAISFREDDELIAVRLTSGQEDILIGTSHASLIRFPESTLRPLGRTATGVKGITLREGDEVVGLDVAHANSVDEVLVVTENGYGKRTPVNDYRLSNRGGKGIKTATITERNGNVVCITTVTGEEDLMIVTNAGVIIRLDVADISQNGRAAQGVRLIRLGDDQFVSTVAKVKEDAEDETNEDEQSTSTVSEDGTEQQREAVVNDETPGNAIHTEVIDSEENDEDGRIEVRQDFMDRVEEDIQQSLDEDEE
assay-notes: Inhibition of supercoiling activity of Staphylococcus aureus DNA gyrase using relaxed pHOT1 plasmid DNA after 60 mins using ethidium bromide staining by […]electrophoresis analysis
measurement-type: IC50 (µM)
Form entry: value (µM) — number only.

Record `CCCCCCCCCCCCCC#CC(=O)Oc1ccc(/C=C/C(=O)/C=C/c2ccc(OC(=O)C#CCCCCCCCCCCCCC)c(OC)c2)cc1OC` , field IC50: 126

====

Measured selectivity ratio of individual entries
assay-notes: Therapeutic index, ratio of IC50 for human PBMC to IC50 for methicillin-resistant Staphylococcus aureus CIMRSA3
conditions-used: read-out: Ratio IC50
Reply with the value as a number alone.

COc1cc(/C=C/C(=O)/C=C/c2ccc(O)c(OC)c2)ccc1O :: 0.4

Next molecule, selectivity ratio to be filled in.
Record `CCCCCCCCCCCCCC#CC(=O)Oc1ccc(/C=C/C(=O)/C=C/c2ccc(OC(=O)C#CCCCCCCCCCCCCC)c(OC)c2)cc1OC` , field selectivity ratio: 7.2

====

assay-notes: Therapeutic index, ratio of IC50 for human PBMC to IC50 for methicillin-resistant Staphylococcus aureus CIMRSA4
conditions-used: read-out: Ratio IC50
Measured selectivity ratio of individual entries
Reply with the value as a number alone.

CCCCCCCCCCCCCC#CC(=O)Oc1ccc(/C=C/C(=O)/C=C/c2ccc(OC(=O)C#CCCCCCCCCCCCCC)c(OC)c2)cc1OC :: 9.9

Next molecule, selectivity ratio to be filled in.
Record `COc1cc(/C=C/C(=O)/C=C/c2ccc(O)c(OC)c2)ccc1O` , field selectivity ratio: 0.3

====

System: Staphylococcus aureus
assay-notes: Antibacterial activity against methicillin-resistant Staphylococcus aureus CIMRSA3 after 18 to 24 hrs by spectrophotometric analysis
Type: functional, organism-based
measurement-type: IC50 (µg/mL)
Form entry: value (µg/mL) — number only.

As a guide, the following entries are already answered.
CCCCCCCCCCCCCC#CC(=O)Oc1ccc(/C=C/C(=O)/C=C/c2ccc(OC(=O)C#CCCCCCCCCCCCCC)c(OC)c2)cc1OC :: 34.2
COc1cccc(OC)c1C(=O)N[C@@H]1C(=O)N2[C@@H]1SC(C)(C)[C@@H]2C(=O)O :: 2.2

Next molecule, IC50 to be filled in.
Form: item `COc1cc(/C=C/C(=O)/C=C/c2ccc(O)c(OC)c2)ccc1O` ; test system Staphylococcus aureus; IC50: 124

====

assay-notes: Therapeutic index, ratio of IC50 for human PBMC to IC50 for methicillin-resistant Staphylococcus aureus ATCC 43300
conditions-used: read-out: Ratio IC50
Measured selectivity ratio of individual entries
Reply with the value as a number alone.

CCCCCCCCCCCCCC#CC(=O)Oc1ccc(/C=C/C(=O)/C=C/c2ccc(OC(=O)C#CCCCCCCCCCCCCC)c(OC)c2)cc1OC :: 6.2

Next compound, selectivity ratio to be filled in.
Record `COc1cc(/C=C/C(=O)/C=C/c2ccc(O)c(OC)c2)ccc1O` , field selectivity ratio: 0.4

====

assay-notes: Therapeutic index, ratio of IC50 for human PBMC to IC50 for methicillin-resistant Staphylococcus aureus CIMRSA7
conditions-used: read-out: Ratio IC50
Measured selectivity ratio of individual entries
Reply with the value as a number alone.

COc1cc(/C=C/C(=O)/C=C/c2ccc(O)c(OC)c2)ccc1O :: 0.2

Record `CCCCCCCCCCCCCC#CC(=O)Oc1ccc(/C=C/C(=O)/C=C/c2ccc(OC(=O)C#CCCCCCCCCCCCCC)c(OC)c2)cc1OC` , field selectivity ratio: 7.2
